Source of measurements: patent US10087187B2

Items are presented alongside their recorded pKd.
# TGT: PIK3Cα_h (Homo sapiens (Human))
# Sequence (P42336 whole entry): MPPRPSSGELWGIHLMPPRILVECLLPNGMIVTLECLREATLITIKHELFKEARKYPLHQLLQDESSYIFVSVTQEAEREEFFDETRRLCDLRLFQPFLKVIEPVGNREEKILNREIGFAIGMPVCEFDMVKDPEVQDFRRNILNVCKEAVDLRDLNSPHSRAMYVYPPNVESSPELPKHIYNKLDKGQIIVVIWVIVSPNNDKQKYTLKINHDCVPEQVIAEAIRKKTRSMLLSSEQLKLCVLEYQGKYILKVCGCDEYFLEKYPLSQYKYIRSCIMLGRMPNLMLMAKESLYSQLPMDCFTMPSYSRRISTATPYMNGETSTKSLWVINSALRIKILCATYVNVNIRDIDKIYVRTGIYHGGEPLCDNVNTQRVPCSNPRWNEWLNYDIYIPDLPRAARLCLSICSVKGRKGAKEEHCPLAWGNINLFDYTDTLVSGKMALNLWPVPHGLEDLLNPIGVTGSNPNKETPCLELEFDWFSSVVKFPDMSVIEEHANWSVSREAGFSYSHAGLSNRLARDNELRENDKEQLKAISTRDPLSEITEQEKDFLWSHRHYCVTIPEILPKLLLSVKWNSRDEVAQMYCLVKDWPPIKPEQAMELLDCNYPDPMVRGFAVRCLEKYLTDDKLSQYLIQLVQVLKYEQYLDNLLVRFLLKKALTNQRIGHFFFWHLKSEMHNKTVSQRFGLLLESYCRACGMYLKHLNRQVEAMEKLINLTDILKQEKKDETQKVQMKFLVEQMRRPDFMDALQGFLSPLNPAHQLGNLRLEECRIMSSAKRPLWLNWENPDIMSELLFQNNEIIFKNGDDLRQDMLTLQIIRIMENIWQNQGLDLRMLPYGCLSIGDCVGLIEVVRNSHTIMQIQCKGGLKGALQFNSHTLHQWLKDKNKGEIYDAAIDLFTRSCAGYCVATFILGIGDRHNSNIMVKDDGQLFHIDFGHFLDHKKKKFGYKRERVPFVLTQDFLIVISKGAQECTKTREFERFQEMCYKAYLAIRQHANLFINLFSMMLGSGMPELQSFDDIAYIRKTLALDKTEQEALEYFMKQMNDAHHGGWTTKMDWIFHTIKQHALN
pKd: −log10 of the molar value.

Here are 5 compounds together with their reported answers.
1) Cc1nc2c(N)cc(N3CCOCC3)nn2c1Cc1cccc2c1CN(C(C)C)CC2 | < 4.52
2) Cc1c(Cc2c(CO)nc3c(N)cc(N4CCOCC4)nn23)cccc1C(F)(F)F [Compound 14] | < 5.04
3) Cc1c(Cc2c(CO)nc3c(-c4c[nH]cn4)cc(N4CCOC(C)C4)nn23)cccc1C(F)(F)F (stereo not drawn) | < 4.52
4) Cc1c(Cc2c(CO)nc3c(N)cc(N4CCOCC4)nn23)cccc1C(F)(F)F [Compound 14c] | < 5.00
5) Cc1c(Cc2c(CF)nc3c(C(N)=O)cc(N4CCOCC4)nn23)cccc1C(F)(F)F | < 5.00

Query pKd on PIK3Cα_h (Homo sapiens (Human)) for Cc1nc2c(N)cc(N3CCOCC3)nn2c1Cc1cccc(C(F)(F)F)c1C
< 4.52

Query pKd on PIK3Cα_h (Homo sapiens (Human)) for Cc1c(Cc2c(CO)nc3c(N)cc(N4CCOCC4)nn23)cccc1C(F)(F)F [Compound 14a]
< 4.52

Query pKd on PIK3Cα_h (Homo sapiens (Human)) for CC(=O)NCc1nc2c(-c3ncc[nH]3)cc(N3CCOCC3)nn2c1Cc1cccc(C(F)(F)F)c1C
< 4.52

Query pKd on PIK3Cα_h (Homo sapiens (Human)) for Cc1c(Cc2c(CO)nc3c(N)cc(N4CCOCC4)nn23)cccc1C(F)(F)F [Compound 14b]
< 5.00

* * *

# TGT: PIK3Cγ_h (Homo sapiens (Human), UniProt P48736)
# Sequence (P48736 whole entry): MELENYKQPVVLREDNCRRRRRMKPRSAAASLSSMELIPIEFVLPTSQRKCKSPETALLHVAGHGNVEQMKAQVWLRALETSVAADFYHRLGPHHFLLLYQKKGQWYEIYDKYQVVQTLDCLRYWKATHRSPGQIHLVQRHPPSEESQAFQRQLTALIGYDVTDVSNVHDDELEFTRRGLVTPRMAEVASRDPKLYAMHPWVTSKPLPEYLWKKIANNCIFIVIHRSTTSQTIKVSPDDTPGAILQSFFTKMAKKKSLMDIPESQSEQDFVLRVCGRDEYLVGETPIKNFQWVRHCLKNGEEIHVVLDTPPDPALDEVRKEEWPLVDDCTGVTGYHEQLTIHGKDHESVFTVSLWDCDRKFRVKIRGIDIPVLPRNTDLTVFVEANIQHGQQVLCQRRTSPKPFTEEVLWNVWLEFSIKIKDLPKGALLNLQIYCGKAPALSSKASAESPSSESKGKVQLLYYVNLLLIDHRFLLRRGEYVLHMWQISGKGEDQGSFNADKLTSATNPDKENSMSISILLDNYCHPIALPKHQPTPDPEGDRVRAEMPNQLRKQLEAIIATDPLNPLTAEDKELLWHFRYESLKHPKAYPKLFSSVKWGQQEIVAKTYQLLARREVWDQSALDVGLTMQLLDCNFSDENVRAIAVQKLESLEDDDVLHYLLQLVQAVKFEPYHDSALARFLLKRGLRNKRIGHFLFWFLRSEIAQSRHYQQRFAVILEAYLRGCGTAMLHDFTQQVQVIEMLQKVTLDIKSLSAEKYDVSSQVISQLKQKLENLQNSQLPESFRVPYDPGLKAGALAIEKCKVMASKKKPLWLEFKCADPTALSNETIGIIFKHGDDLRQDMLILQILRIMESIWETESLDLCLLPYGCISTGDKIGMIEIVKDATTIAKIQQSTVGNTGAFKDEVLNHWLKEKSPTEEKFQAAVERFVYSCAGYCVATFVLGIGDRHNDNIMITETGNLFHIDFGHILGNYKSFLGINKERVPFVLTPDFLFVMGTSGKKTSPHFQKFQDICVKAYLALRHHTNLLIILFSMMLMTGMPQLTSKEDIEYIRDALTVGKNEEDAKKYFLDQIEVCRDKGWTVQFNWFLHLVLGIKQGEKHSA
pKd: −log10 of the molar value.
Items are presented alongside their recorded pKd.

Here are 2 compounds together with their reported answers.
1. Cc1nc2c(N)cc(N3CCOCC3)nn2c1Nc1cccc(C(F)(F)F)c1CN1CCC2(C1)CS(=O)(=O)C2 | < 4.52
2. Cc1nc2c(N)cc(N3CCOCC3)nn2c1Nc1cccc(C(F)(F)F)c1CN1CCC(S(C)(=O)=O)CC1 | < 4.52

# evaluate next
Query pKd on PIK3Cγ_h (Homo sapiens (Human), UniProt P48736) for Cc1c(Cc2c(CO)nc3c(-c4c[nH]cn4)cc(N4CCOC(C)C4)nn23)cccc1C(F)(F)F (stereo not drawn) [Compound 25]
< 4.52
